- assay text: Selectivity index, ratio of CC50 for human HepG2 cells in presence of 1% FBS to MIC for Mycobacterium tuberculosis H37Rv ATCC 25618
- Format: toxicity
- settings: read-out: Selectivity Index
Response field label takes Yes when selectivity ratio is strictly below 2 and No in all other cases.

{"columns": ["molecule smiles", "category label"],
 "data": [
  ["COc1ccc2c(c1)[I+]c1ccccc1-2", "No"],
  ["c1ccc2c(c1)[I+]c1c-2ccc2ccccc12", "No"],
  ["COc1cccc2c1-c1ccccc1[I+]2", "No"],
  ["Fc1cccc2c1-c1c(Cl)cccc1[I+]2", "Yes"],
  ["Clc1cccc2c1-c1ccccc1[I+]2", "No"],
  ["Cc1cccc2c1-c1ccccc1[I+]2", "No"],
  ["Clc1ccc(Cl)c2c1[I+]c1ccccc1-2", "Yes"],
  ["Clc1cccc2c1[I+]c1cccc(Cl)c1-2", "Yes"],
  ["Clc1ccc2c(c1)[I+]c1ccccc1-2", "No"],
  ["Fc1ccc2c(c1)-c1ccccc1[I+]2", "No"],
  ["N#Cc1ccc2c(c1)[I+]c1ccccc1-2", "No"],
  ["Cc1ccc2c(c1)[I+]c1ccccc1-2.O=S(=O)([O-])C(F)(F)F", "No"],
  ["Fc1cccc2c1-c1ccccc1[I+]2", "No"],
  ["COc1ccc2c(c1)-c1ccccc1[I+]2", "No"]
]}

---

- assay text: Selectivity index, ratio of CC50 for human HepG2 cells in presence of 1% FBS to IC50 for drug-resistant GFP-fused Plasmodium falciparum D10
- Type: toxicity
- settings: read-out: Ratio IC50
In this section, each of the molecules is paired with its reported selectivity ratio.

{"columns": ["molecule smiles", "selectivity ratio"],
 "data": [
  ["Clc1cccc2c1-c1ccccc1[I+]2", 8.9],
  ["Fc1cccc2c1-c1ccccc1[I+]2", 61],
  ["FC(F)(F)c1cccc2c1-c1ccccc1[I+]2", 0.18],
  ["N#Cc1ccc2c(c1)-c1ccccc1[I+]2", 256]
]}

---

- assay text: Selectivity index, ratio of CC50 for human HepG2 cells in presence of 1% FBS to MIC for vancomycin-resistant Enterococcus faecium ATCC 700221
- Format: toxicity
- settings: read-out: Selectivity Index
In this section, each of the compounds is paired with its reported selectivity ratio.

{"columns": ["molecule smiles", "value qualifier", "selectivity ratio"],
 "data": [
  ["COc1ccc2c(c1)-c1ccccc1[I+]2", "=", 4.6],
  ["Clc1ccc2c(c1)-c1ccccc1[I+]2", "=", 1.9],
  ["Clc1ccc2c(c1)[I+]c1ccccc1-2", "=", 1],
  ["Fc1ccc2c(c1)[I+]c1ccccc1-2", "=", 2.6],
  ["Fc1ccc2c(c1)-c1ccccc1[I+]2", "=", 2.7],
  ["Cc1ccc2c(c1)-c1ccccc1[I+]2", "=", 8.3],
  ["COc1ccc2c(c1)[I+]c1ccccc1-2", "=", 1.6],
  ["N#Cc1ccc2c(c1)[I+]c1ccccc1-2", "=", 1.5],
  ["Cc1ccc2c(c1)[I+]c1ccccc1-2.O=S(=O)([O-])C(F)(F)F", "=", 0.81],
  ["Cc1cccc2c1-c1ccccc1[I+]2", "=", 1.2],
  ["Fc1cccc2c1-c1ccccc1[I+]2", "=", 8.2],
  ["c1ccc2c(c1)[I+]c1c-2ccc2ccccc12", "=", 0.69],
  ["COc1cccc2c1-c1ccccc1[I+]2", "=", 4.4],
  ["N#Cc1ccc2c(c1)-c1ccccc1[I+]2", "=", 20],
  ["c1ccc2c(c1)[I+]c1ccccc1-2", "=", 6.3],
  ["Clc1cccc2c1-c1ccccc1[I+]2", "<", 2.4]
]}

Where do these numbers come from? They come from ChEMBL document CHEMBL4145448.
